- Tested on: 301 cancer cell lines from different tumor types
- Assay overview: 2D cell viability inhibition assay, broad cancer cell line panel (OncoPanel; CellTiter-Glo)
- Format: cell-based
- Condition details: Homo sapiens, NCI-H1395, 168 h, NCIH1395 (lung, adenocarcinoma)
Readout name: EC50

smiles_code=CC(C)c1ccc(N(C)c2ccc3c(c2)OCC[C@H]3CNc2cnccc2C(=O)O)cc1 assay_result="≥ 10 µM"

----------
- Test system: 301 cancer cell lines from different tumor types
- Assay overview: 2D cell viability inhibition assay, broad cancer cell line panel (OncoPanel; CellTiter-Glo)
- Assay type: cell-based
- Condition details: 168 h, HS839T (skin, NS)
pIC50: −log10 of the molar value.
Readout name: pIC50

molecule="CC(C)c1ccc(N(C)c2ccc3c(c2)OCC[C@H]3CNc2cnccc2C(=O)O)cc1 [Compound 1]" study_system="301 cancer cell lines from different tumor types" assay_result="≤ 5.00"

----------
- Tested on: 301 cancer cell lines from different tumor types
- Assay overview: 2D cell viability inhibition assay, broad cancer cell line panel (OncoPanel; CellTiter-Glo)
- Type: cell-based
- Condition details: Homo sapiens, HCC1419, 168 h, HCC1419 (breast, ductal carcinoma)
- Method: In a larger screening study, compound 1 was evaluated across a broad cancer cell line panel (OncoPanel; HD Biosciences) composed of 301 cancer cell lines from different tumor types. 2D cell viability inhibition assays were performed in multiwell plates seeded with cells from the panel. […] Cultures were incubated for 168 hours after which the number of viable cells in each test well was assessed using the CellTiter-Glo® Luminescent Cell Viability Assay. […]
pEC50: −log10 of the molar value.
Readout name: pEC50

smiles_code=CC(C)c1ccc(N(C)c2ccc3c(c2)OCC[C@H]3CNc2cnccc2C(=O)O)cc1 readout_name=pEC50 assay_result="≤ 5.00"

----------
- Tested on: 301 cancer cell lines from different tumor types
- Assay overview: 2D cell viability inhibition assay, broad cancer cell line panel (OncoPanel; CellTiter-Glo)
- Format: cell-based
- Condition details: Homo sapiens, TE-15, 168 h, TE15 (oesophagus, squamous cell carcinoma)
pEC50: −log10 of the molar value.
Readout name: pEC50

molecule="CC(C)c1ccc(N(C)c2ccc3c(c2)OCC[C@H]3CNc2cnccc2C(=O)O)cc1 [Compound 1]" assay_result="≤ 5.00"

----------
- Test system: 301 cancer cell lines from different tumor types
- Assay overview: 2D cell viability inhibition assay, broad cancer cell line panel (OncoPanel; CellTiter-Glo)
- Type: cell-based
- Condition details: Homo sapiens, HCC1419, 168 h, HCC1419 (breast, ductal carcinoma)
pIC50: −log10 of the molar value.
Readout name: pIC50

smiles_code=CC(C)c1ccc(N(C)c2ccc3c(c2)OCC[C@H]3CNc2cnccc2C(=O)O)cc1 readout_name=pIC50 assay_result="≤ 5.00"

----------
- Test system: 301 cancer cell lines from different tumor types
- Assay overview: 2D cell viability inhibition assay, broad cancer cell line panel (OncoPanel; CellTiter-Glo)
- Format: cell-based
- Condition details: Homo sapiens, HCC1428, 168 h, HCC1428 (breast, NS)
pIC50: −log10 of the molar value.
Readout name: pIC50

smiles_code=CC(C)c1ccc(N(C)c2ccc3c(c2)OCC[C@H]3CNc2cnccc2C(=O)O)cc1 readout_name=pIC50 assay_result="≤ 5.00"

----------
- Test system: 301 cancer cell lines from different tumor types
- Assay overview: 2D cell viability inhibition assay, broad cancer cell line panel (OncoPanel; CellTiter-Glo)
- Format: cell-based
- Condition details: Homo sapiens, ONS-76, 168 h, ONS76 (central nervous system, NS)
Readout name: IC50

smiles_code=CC(C)c1ccc(N(C)c2ccc3c(c2)OCC[C@H]3CNc2cnccc2C(=O)O)cc1 study_system="301 cancer cell lines from different tumor types" readout_name=IC50 assay_result="≥ 10 µM"

Source of measurements: patent US20250025451A1
